Molecular target: gelatinase B from neutrophils (Homo sapiens)
Assay: gelatinase microtiter plate assay (digestion of biotinylated gelatin, inhibition factor)
Format: biochemical
Parameters: endogenous in cells; host or cells: human neutrophils stimulated with lipopolysaccharide; conditioned medium
Settings: tetracycline concentration 3.33 mg/ml; crude neutrophil gelatinase B; '-' = no inhibitory activity
Where a name gives a salt, the structure may show the parent alone.
endpoint.label: Inhibition factor (IF)

CN(C)c1ccc(O)c2c1C[C@H]1C[C@H]3[C@H](N(C)C)C(O)=C(C(N)=O)C(=O)[C@@]3(O)C(O)=C1C2=O [minocycline HCl] : 8
CN(C)[C@@H]1C(O)=C(C(N)=O)C(=O)[C@@]2(O)C(O)=C3C(=O)c4c(O)cccc4[C@@](C)(O)[C@H]3C[C@@H]12 [tetracycline HCl] : 8

A = C=C1c2cccc(O)c2C(=O)C2=C(O)[C@]3(O)C(=O)C(C(N)=O)=C(O)[C@@H](N(C)C)[C@@H]3[C@@H](O)[C@H]12 [metacycline HCl]
B = CN(C)[C@@H]1C(O)=C(C(N)=O)C(=O)[C@@]2(O)C(O)=C3C(=O)c4c(O)ccc(Cl)c4[C@@](C)(O)[C@H]3C[C@@H]12 [chlortetracycline HCl]
C = CN(C)[C@@H]1C(O)=C(C(N)=O)C(=O)[C@@]2(O)C(O)=C3C(=O)c4c(O)cccc4C[C@H]3C[C@@H]12 [6-deoxy-6-demethyltetracycline HCl]
D = CN(C)c1ccc(O)c2c1C[C@H]1C[C@H]3[C@@H](N(C)C)C(O)=C(C(N)=O)C(=O)[C@@]3(O)C(O)=C1C2=O [4-epiminocycline HCl]
Query :: Put the entries in order of Inhibition factor (IF), starting with the largest number. Answer format: list of labels, ordered as asked.
Result :: B, A, C, D

====

Molecular target: gelatinase B from neutrophils (Homo sapiens, UniProt P14780)
Sequence (P14780 94-707): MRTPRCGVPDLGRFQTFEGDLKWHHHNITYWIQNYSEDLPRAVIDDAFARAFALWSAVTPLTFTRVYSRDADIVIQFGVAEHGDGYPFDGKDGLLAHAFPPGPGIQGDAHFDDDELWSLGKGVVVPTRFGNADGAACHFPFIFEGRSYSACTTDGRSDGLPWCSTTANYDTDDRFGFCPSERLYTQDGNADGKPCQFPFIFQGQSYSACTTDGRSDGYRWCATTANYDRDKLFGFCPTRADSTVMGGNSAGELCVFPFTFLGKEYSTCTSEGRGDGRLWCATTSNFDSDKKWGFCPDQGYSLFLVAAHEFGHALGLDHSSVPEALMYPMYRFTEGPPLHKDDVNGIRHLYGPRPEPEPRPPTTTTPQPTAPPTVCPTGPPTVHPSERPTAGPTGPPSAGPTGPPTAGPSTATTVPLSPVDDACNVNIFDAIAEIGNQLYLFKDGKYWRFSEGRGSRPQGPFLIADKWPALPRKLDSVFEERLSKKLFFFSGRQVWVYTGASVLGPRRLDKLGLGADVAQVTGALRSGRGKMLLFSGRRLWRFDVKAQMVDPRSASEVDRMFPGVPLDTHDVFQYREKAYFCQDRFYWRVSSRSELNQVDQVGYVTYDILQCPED
Assay: gelatinase microtiter plate assay (digestion of biotinylated gelatin, inhibition factor)
Type: biochemical
Design: endogenous in cells; host or cells: human neutrophils stimulated with lipopolysaccharide; conditioned medium
Settings: tetracycline concentration 1.67 mg/ml; crude neutrophil gelatinase B; '-' = no inhibitory activity
Counter-ions that a name gives are not always drawn.
endpoint.label: Inhibition factor (IF)

These solved cases illustrate the format of a correct answer.
CN(C)[C@@H]1C(O)=C(C(N)=O)C(=O)[C@@]2(O)C(O)=C3C(=O)c4c(O)ccc(Cl)c4[C@@](C)(O)[C@H]3C[C@@H]12 [chlortetracycline HCl] : 27
CN(C)[C@@H]1C(O)=C(C(N)=O)C(=O)[C@@]2(O)C(O)=C3C(=O)c4c(O)cccc4[C@@](C)(O)[C@H]3C[C@@H]12 [tetracycline HCl] : 3

I = C=C1c2cccc(O)c2C(=O)C2=C(O)[C@]3(O)C(=O)C(C(N)=O)=C(O)[C@@H](N(C)C)[C@@H]3[C@@H](O)[C@H]12 [metacycline HCl]
II = CN(C)c1ccc(O)c2c1C[C@H]1C[C@H]3[C@H](N(C)C)C(O)=C(C(N)=O)C(=O)[C@@]3(O)C(O)=C1C2=O [minocycline HCl]
III = CN(C)[C@@H]1C(O)=C(C(N)=O)C(=O)[C@@]2(O)C(O)=C3C(=O)c4c(O)cccc4C[C@H]3C[C@@H]12 [6-deoxy-6-demethyltetracycline HCl]
Query :: Please produce an ascending ranking of these compounds based on Inhibition factor (IF). Answer format: list of labels, ordered as asked.
Result :: II, III, I

====

Target: gelatinase B from neutrophils (Homo sapiens)
Assay: gelatinase microtiter plate assay (digestion of biotinylated gelatin, inhibition factor)
Format: biochemical
Parameters: endogenous in cells; host or cells: human neutrophils stimulated with lipopolysaccharide; conditioned medium
Settings: tetracycline concentration 3.33 mg/ml; crude neutrophil gelatinase B; '-' = no inhibitory activity
Where a name gives a salt, the structure may show the parent alone.
endpoint.label: Inhibition factor (IF)

Cc1c2c(c(O)c3c(O)cccc13)C(=O)[C@]1(O)C(=O)C(C(N)=O)=C(O)[C@H](N(C)C)[C@@H]1C2 [4-epianhydrotetracycline HCl] : precipitation
CN(C)[C@H]1C(O)=C(C(N)=O)C(=O)[C@@]2(O)C(O)=C3C(=O)c4c(O)ccc(Cl)c4[C@@](C)(O)[C@H]3C[C@@H]12 [4-epichlortetracycline HCl] : precipitation
CN(C)[C@@H]1C(=O)C(C(N)=O)=C(O)[C@@]2(O)C(=O)C[C@@H]([C@]3(C)OC(=O)c4c(O)ccc(Cl)c43)C[C@@H]12 [isochlortetracycline HCl] : 3
